# assay details: A CellTox Green Cytotoxicity Assay to monitor cytotoxicity in HEK293 cells - 8 hour (AID 1224884); further: nearly all actives have a fitted effect of over 35% in size
# experimental conditions: CellTox Green fluorescence; series mostly up to 76.8 µM
Inconclusive results are not listed. The source made the active and inactive calls. The call rests on the fitted dose curve; in most records, active means well fitted activation curve with a large enough effect in the repeat runs; inconclusive means weak or mixed curves; inactive means flat fitted curve, though single readings scatter.
// one of true (1) for active, false (0) for inactive, no free text

> print(dat)
                                    smi  assigned.category
1  CC(c1ccccc1)(c1ccc(O)cc1)c1ccc(O)cc1          false (0)

# input What did this assay record as the result for O=C(Nc1ccccc1-c1ccc(Cl)cc1)c1cccnc1Cl ?
# output true (1)

# input Which outcome was entered for the molecule Cc1cc(C)c(C(=O)P(=O)(c2ccccc2)c2ccccc2)c(C)c1 in this test?
# output false (0)

# input How did this test come out for CCOC(=O)C(O)(c1ccc(Cl)cc1)c1ccc(Cl)cc1 ?
# output false (0)

# input Record lookup: outcome of this test for OCC(c1ccc(Cl)cc1)c1ccc(Cl)cc1 ?
# output true (1)

====

# assay details: qHTS assay for small molecule agonists of the p53 signaling pathway (AID 651631); further: nearly all actives have a fitted effect of over 15% in size
# experimental conditions: HCT-116 p53RE-bla reporter, beta-lactamase FRET ratio, 16 h; series mostly up to 73.3 µM
Results filed as inconclusive are left out. Calls of active or inactive are those of the source. Calls come from the whole dose curve.
Would you mind answering with one of these outcomes? True = active, False = inactive

# input Could you please tell me the result logged for CC(N)Cc1ccc2c(c1)OCO2 (stereo not given) in this assay?
# output False

# input GET /call?item= C=CCOc1c(Br)cc(C(C)(C)c2cc(Br)c(OCC=C)c(Br)c2)cc1Br returns the recorded outcome of this test.
# output False

# input Per the assay record, what outcome was assigned to CCCCC(CC)COC(=O)CCCCC(=O)OCC(CC)CCCC (stereo not given) ?
# output False

# input Fill in: this test's call for O=C1C[C@@H]2OCC=C3CN4CC[C@]56c7ccccc7N1[C@H]5[C@H]2[C@H]3C[C@H]46 (tested in a mixture with another compound) is ___
# output False

# input Entry CC(=O)[C@H]1CC[C@H]2[C@@H]3CC[C@@H]4C[C@H](O)CC[C@]4(C)[C@H]3CC[C@]12C : call = ?
# output False

# input I'd appreciate the recorded outcome for COC(=O)[C@H]1[C@@H](OC(=O)c2ccccc2)C[C@@H]2CC[C@H]1N2C from this test.
# output False

====

# assay details: qHTS assay to identify small molecule antagonists of the estrogen related receptor signaling pathway with the pleiotropic PPARgamma coactivator (PGC) from Tox21 10K library (AID 1224841); further: actives are mostly falling curves and most rising ones were filed inactive; nearly all actives have a fitted effect of over 50% in size
# experimental conditions: PGC/ERR reporter cell line, ONE-Glo luciferase, 18 h; series mostly up to 92.4 µM
Results filed as inconclusive are left out. Activity calls are given as the source filed them. The rule behind the calls is not given here.
Use one of these outcomes when replying: True for active, False for inactive

> print(dat)
                                   molecule  assigned.category
1  CCC1C(=O)OCC1Cc1cncn1C (stereo not given)              False
2                         O=C(O)/C=C\C(=O)O              False
3  ClC1=C(Cl)[C@]2(Cl)[C@@H]3[C@@H](Cl)[C@H]4O[C@H]4[C@@H]3C1(Cl)C2(Cl)Cl              False
4                         O=C(O)/C=C/C(=O)O              False

# input What is the recorded call for this molecule in the test? COc1ccc(C(c2ccc(OC)cc2)C(Cl)(Cl)Cl)cc1
# output True

# input # fetch the recorded call for CC1COC(Cn2cncn2)(c2ccc(Oc3ccc(Cl)cc3)cc2Cl)O1 (stereo not given) here
# output True

# input What call does the record list for c1ccc2c(c1)Sc1ccccc1N2CC1CN2CCC1CC2 (stereo not given) ?
# output False

====

# assay details: qHTS assay for identifying genotoxic compounds that show differential cytotoxicity against isogenic chicken DT40 cell lines with known DNA damage response pathways - Rad54/Ku70 mutant cell line (AID 743015); further: nearly all actives have a fitted effect of over 60% in size
# experimental conditions: DT40 Rad54/Ku70 mutant viability, CellTiter-Glo, 40 h; series mostly up to 66.8 µM
Results filed as inconclusive are left out. Activity calls are given as the source filed them. The call rests on the fitted dose curve; in most records, active means well fitted cell-killing curve with a large enough effect in the repeat runs; inconclusive means weak or mixed curves; inactive means no such curve, though single readings can be large or run the other way.
Hi! Could you answer with just one of these? 1 (yes) (active), 0 (no) (inactive)

Consider the worked cases shown below.
molecule	assigned category
C=C[C@H]1CN2CC[C@H]1C[C@H]2[C@H](OC(=O)OCC)c1ccnc2ccc(OC)cc12	0 (no)
CNC(C)Cc1ccccc1 (centres undefined)	0 (no)
COc1ccc2c(c1)C13CCCC[C@@H]1C(C2)N(C)CC3 (some centres undefined)	0 (no)

# input Outcome logged for CC(=O)O[C@H]1C[C@H](O[C@H]2[C@@H](O)C[C@H](O[C@H]3[C@@H](O)C[C@H](O[C@H]4CC[C@@]5(C)[C@H](CC[C@@H]6[C@@H]5C[C@@H](O)[C@]5(C)[C@@H](C7=CC(=O)OC7)CC[C@]65O)C4)O[C@@H]3C)O[C@@H]2C)O[C@H](C)[C@H]1O[C@@H]1O[C@H](CO)[C@@H](O)[C@H](O)[C@H]1O in this assay:
# output 1 (yes)

# input Please share the test call associated with CC(C)=CCN1CC[C@]2(C)c3cc(O)ccc3C[C@H]1[C@H]2C .
# output 1 (yes)

# input Dear colleague, could you share the recorded outcome for CCN(CC)CCO[C@H]1CC[C@@]2(C)C(=CC[C@@H]3[C@@H]2CC[C@]2(C)C(=O)CC[C@@H]32)C1 when you have a moment?
# output 1 (yes)

# input Write down the call the test reported for this molecule. Item: CNC1(c2ccccc2Cl)CCCCC1=O (centres undefined)
# output 0 (no)

# input Record lookup: outcome of this test for CN[C@@H]1C[C@@H](c2ccc(Cl)c(Cl)c2)c2ccccc21 ?
# output 1 (yes)

# input Please let me know the test result on file for CC[C@H]1[C@@H]2C[C@H]3[C@@H]4N(C)c5ccccc5[C@]45C[C@@H](C2[C@H]5O)N3[C@@H]1O (some centres undefined) .
# output 0 (no)

# input Hey, what did the test say about CCC/C=C/C=C/C(=O)O[C@H]1/C(=C/C(=O)OC)C[C@H]2C[C@H]([C@@H](C)O)OC(=O)C[C@H](O)C[C@@H]3C[C@H](OC(C)=O)C(C)(C)[C@](O)(C[C@@H]4C/C(=C/C(=O)OC)C[C@H](/C=C/C(C)(C)[C@]1(O)O2)O4)O3 ?
# output 1 (yes)

====

# target of assay: Acetylcholinesterase (Homo sapiens)
# assay details: Acetylcholinesterase (AChE) small molecule antagonists: fluorescence cell-based qHTS assay (AID 1347398); further: nearly all actives have a fitted effect of over 50% in size
# experimental conditions: SH-SY5Y cells; AChE activity; series mostly up to 115 µM
# Source text: National Center for Advancing Translational Sciences [NCATS] Division of Preclinical Innovation [DPI] U.S. Environmental Protection Agency [EPA] National Institutes of Environmental Health Sciences [NIEHS] National Toxicology Program [NTP] […] A homogenous cell-based assay using Amplitetrade mark Fluorimetric Acetylcholinesterase Assay Kit *Green Fluorescence* (AAT Bioquest, Sunnyvale, CA) was used to evaluate the chemicals in the Tox21 10K library that inhibit AChE activity. […]
Results filed as inconclusive are left out. Active and inactive are the calls of the source. Calls follow the shape of the full dose curve.
property label: outcome

Examples with their reported outcome follow.
> print(dat)
                                   compound  experimental.result
1                                CCOC(C)OCC             inactive
2                     CC(C)COC(=O)c1ccccc1O             inactive
3  C[C@@H]1C[C@H]2[C@@H]3CCC4=CC(=O)C=C[C@]4(C)[C@@]3(F)[C@@H](O)C[C@]2(C)[C@@]1(O)C(=O)COC(=O)c1ccncc1             inactive
4                               C=CC(C)(C)C             inactive
5  c1ccc2c(c1)Sc1ccccc1N2CC1CN2CCC1CC2 (stereo unspecified)             inactive

--- query ---
# input Name the recorded outcome for CC(Cl)COP(=O)(OCC(C)Cl)OCC(C)Cl (stereo unspecified) .
# output inactive

====

# assay details: qHTS RealTime-Glo MT Cell Viability Assay in HEK293 cells - 8 hour (AID 1224887); further: nearly all actives have a fitted effect of over 50% in size
# experimental conditions: RealTime-Glo luminescence; series mostly up to 76.8 µM
Inconclusive results are not listed. The source made the active and inactive calls. Calls follow the shape of the dose curve; as a rule, active = well fitted cell-killing curve with a large enough effect in the repeat runs; inconclusive = weak or mixed curves, or effect the other way; inactive = flat fitted curve, though single readings scatter.
One label from this list, please: active, inactive

> print(dat)
                                   compound  assigned.category
1  CC1COC(Cn2cncn2)(c2ccc(Oc3ccc(Cl)cc3)cc2Cl)O1 (centres undefined)             active

# input # fetch the recorded call for O=C1C(I)=CC(=C(c2cc(I)c(O)c(I)c2)c2ccccc2C(=O)O)C=C1I here
# output inactive

# input For CCOC(=O)C(O)(c1ccc(Cl)cc1)c1ccc(Cl)cc1 , which call appears in the assay record?
# output active

# input What did this assay record as the result for CCN(CC)C(=O)Cl ?
# output inactive

# input So what was the verdict on Cc1cc(C(C)(C)c2ccc(O)c(C)c2)ccc1O in this test?
# output active

# input # fetch the recorded call for OCC(c1ccc(Cl)cc1)c1ccc(Cl)cc1 here
# output active
